Every entry's value here was drawn from patent US9863962.

Biological target: hemoglobin (Hb, non-glycated / total Hb) (UniProt P69905;P68871 P69905:2-142,P68871:2-147)
Sequence (P69905 2-142, chain 1 of 2): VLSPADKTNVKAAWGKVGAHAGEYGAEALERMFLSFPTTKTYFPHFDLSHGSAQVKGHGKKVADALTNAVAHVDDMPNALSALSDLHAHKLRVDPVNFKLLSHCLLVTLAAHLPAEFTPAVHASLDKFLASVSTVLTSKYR
Sequence (P68871 2-147, chain 2 of 2): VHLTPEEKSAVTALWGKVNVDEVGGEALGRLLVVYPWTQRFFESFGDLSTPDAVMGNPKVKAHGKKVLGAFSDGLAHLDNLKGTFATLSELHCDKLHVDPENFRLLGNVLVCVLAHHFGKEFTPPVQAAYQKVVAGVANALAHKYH
Assay: electrochemical impedance on Hb-gold electrode; 50 mM Tris pH 7.5, 150 mM NaCl, 2 mM MgCl2
Settings: tags: none; purified Hb from Monojo (Amman, Jordan); immobilized on cysteamine/PDITC gold electrode; chain copies: 2
Experimental: Binding analysis of the aptamer sequences to Hb and HbA1C: In order to test the binding affinity of the aptamer sequences to their protein targets, some representative sequences were synthesized after eliminating the primers sequence. […] The electrodes were then washed with binding buffer and impedance measurements were recorded in 5 mM [Fe(CN)_6]^{3-/4-} redox couple. The binding was then evaluated by calculating the % $RCT$ change)((R−R°/R°%). […]
MEASURE: pKd
Schema: pKd number; meaning minus log10 of the concentration expressed in molar units.

pKd for G15 (ssDNA) DNA: ACGCACACCAGAGACAAGTAGCCCCCCAAACGCGGCCACGGAACGCAGCACCTCCATGGC ? 8.57
